- target-under-test: frog AHR1β T256A/S263P mutant (Xenopus laevis, UniProt Q4QY30, S263P/T256A)
- Sequence (Q4QY30 1-834 T256A/S263P): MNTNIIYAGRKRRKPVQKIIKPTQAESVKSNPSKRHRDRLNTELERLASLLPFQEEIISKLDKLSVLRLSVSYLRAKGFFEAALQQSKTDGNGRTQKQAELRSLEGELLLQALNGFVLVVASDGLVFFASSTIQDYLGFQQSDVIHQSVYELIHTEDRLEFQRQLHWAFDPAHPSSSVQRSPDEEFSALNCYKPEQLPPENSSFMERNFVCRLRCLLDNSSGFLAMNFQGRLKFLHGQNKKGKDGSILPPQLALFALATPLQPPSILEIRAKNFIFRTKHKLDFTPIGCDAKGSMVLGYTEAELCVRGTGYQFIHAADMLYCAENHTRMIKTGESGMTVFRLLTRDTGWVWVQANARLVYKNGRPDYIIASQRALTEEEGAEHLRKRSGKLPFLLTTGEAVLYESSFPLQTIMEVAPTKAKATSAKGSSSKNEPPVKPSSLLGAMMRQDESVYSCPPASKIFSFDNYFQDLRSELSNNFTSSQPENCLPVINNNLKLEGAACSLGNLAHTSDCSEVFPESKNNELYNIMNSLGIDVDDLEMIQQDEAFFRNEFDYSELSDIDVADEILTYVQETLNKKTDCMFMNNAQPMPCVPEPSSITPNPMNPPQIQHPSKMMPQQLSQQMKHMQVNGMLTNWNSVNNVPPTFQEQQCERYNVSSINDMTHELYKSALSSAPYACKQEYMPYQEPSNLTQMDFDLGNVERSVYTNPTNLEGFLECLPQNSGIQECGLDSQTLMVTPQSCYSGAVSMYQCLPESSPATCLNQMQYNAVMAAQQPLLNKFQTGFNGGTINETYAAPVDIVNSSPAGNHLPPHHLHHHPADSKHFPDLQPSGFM
- Sequence (Q6P6Z6 1-765 partner): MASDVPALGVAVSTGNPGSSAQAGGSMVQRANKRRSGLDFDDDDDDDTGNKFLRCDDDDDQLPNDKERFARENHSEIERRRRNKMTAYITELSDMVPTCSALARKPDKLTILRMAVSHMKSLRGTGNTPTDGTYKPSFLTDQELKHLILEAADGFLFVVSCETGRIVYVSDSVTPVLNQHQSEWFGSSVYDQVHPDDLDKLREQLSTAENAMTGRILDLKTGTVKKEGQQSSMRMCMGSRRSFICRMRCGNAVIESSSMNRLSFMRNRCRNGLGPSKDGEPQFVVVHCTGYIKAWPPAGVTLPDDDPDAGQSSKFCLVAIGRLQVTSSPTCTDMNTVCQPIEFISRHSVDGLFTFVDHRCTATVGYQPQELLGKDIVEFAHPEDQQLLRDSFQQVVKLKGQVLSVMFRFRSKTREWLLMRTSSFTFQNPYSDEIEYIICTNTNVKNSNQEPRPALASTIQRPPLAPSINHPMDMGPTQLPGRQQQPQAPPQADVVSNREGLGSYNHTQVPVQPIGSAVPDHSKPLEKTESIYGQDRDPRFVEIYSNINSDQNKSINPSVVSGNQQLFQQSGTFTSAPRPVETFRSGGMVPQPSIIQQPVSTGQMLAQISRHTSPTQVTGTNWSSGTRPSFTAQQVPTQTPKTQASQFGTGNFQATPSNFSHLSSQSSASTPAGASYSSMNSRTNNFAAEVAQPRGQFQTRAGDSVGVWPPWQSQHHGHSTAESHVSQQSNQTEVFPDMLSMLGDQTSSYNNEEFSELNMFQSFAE
- test-details: Transactivation
reported-endpoint: pEC50
Value format note: pEC50 is -log10 of concentration (mol/L); just state the number.

Measured pEC50 (frog AHR1β T256A/S263P mutant (Xenopus laevis, UniProt Q4QY30, S263P/T256A)), entry Clc1cc2c(cc1Cl)Oc1cc(Cl)c(Cl)cc1O2 : 7.69

====

- target-under-test: frog AHR1β KHSR mutant (R345K, D346H, T347S, G348R) (Xenopus laevis, UniProt Q4QY30, D346H/G348R/R345K/T347S)
- Sequence (Q4QY30 1-834 R345K/D346H/T347S/G348R): as the sequence (Q4QY30 1-834 T256A/S263P) above, with A256T, P263S, R345K, D346H, T347S, G348R counted along it
- Sequence (Q6P6Z6 1-765 partner): as the sequence (Q6P6Z6 1-765 partner) above
- test-details: Transactivation
reported-endpoint: pEC50
To interpret pEC50, take it as minus log10 of a concentration measured in moles per litre.

// Clc1cc2c(cc1Cl)Oc1cc(Cl)c(Cl)cc1O2 : pEC50 value = 7.64
